Test system: CCRFCEM (ALL)
METHOD_SUMMARY: Oncotest inhibition of viability, CCRFCEM
Format: cell-based
ASSAY_SETUP: Homo sapiens, CCRF-CEM; ALL cell line CCRFCEM; read-out: IC50 range
pIC50: −log10 of the molar value.
PARAMETER: pIC50

Dear colleague, I am looking for the recorded pIC50 of the following molecule: `COC(=O)c1c(-c2c(F)cccc2Cl)noc1-c1cnn(-c2cccc(Cl)c2)c1C(F)(F)F`
7.00 to 8.00

====

TARGET_OR_TEST_SYSTEM: UniProtKB P51449
Sequence (P51449 269-518 limits assumed): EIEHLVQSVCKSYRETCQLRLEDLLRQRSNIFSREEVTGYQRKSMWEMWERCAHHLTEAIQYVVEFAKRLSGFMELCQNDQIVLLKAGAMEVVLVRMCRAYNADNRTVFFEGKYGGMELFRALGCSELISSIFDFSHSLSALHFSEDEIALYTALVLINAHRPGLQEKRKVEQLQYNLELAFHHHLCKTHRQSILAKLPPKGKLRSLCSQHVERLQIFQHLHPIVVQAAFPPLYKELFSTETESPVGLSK
METHOD_SUMMARY: RORγt inhibition, Indigo Biosciences Human RAR-related Orphan Receptor, Gamma Reporter Assay System
ASSAY_SETUP: luciferase reporter cells, 22-24 h incubation; read-out: IC50 range, RORγt assay
PARAMETER: IC50

1. COC(=O)c1c(-c2c(F)cccc2Cl)noc1-c1cnn(-c2cccc(Cl)c2)c1C(F)(F)F = < 0.01 µM

Provide IC50 for all items below, preserving their order.
1. CC(C)(O)CCn1ncc(-c2onc(-c3cccc(OCCN4CCOCC4)c3Cl)c2-c2ncccn2)c1C(F)(F)F
2. CC(C)(O)CCn1ncc(-c2onc(-c3c(F)cccc3Cl)c2-c2ncccn2)c1C(F)(F)F

0.1 to 1 µM
0.01 to 0.1 µM

Provide IC50 for all items below, preserving their order.
1. Fc1cccc(Cl)c1-c1noc(-c2cnn(-c3cccc(Cl)c3)c2C(F)(F)F)c1-c1nccs1
2. CC(C)(O)CCn1ncc(-c2onc(-c3c(F)cccc3Cl)c2-c2ncccn2)c1C(F)F
3. Fc1cccc(Cl)c1-c1noc(-c2cnn(-c3cccc(Cl)c3)c2C(F)(F)F)c1COC1CC1

["< 0.01 µM", "0.01 to 0.1 µM", "< 0.01 µM"]
